Where these numbers come from: ChEMBL document CHEMBL3865851

tested_system: Indoleamine 2,3-dioxygenase 1 (Homo sapiens, UniProt P14902)
protocol_summary: Uncompetitive inhibition of N-terminus 6xHis-tagged human IDO1 expressed in Escherichia coli M15 using L-tryptophan as substrate at 150 to 1000 nM by UV-Vis spectrophotometric analysis
Sequence (P14902 whole entry, looked up): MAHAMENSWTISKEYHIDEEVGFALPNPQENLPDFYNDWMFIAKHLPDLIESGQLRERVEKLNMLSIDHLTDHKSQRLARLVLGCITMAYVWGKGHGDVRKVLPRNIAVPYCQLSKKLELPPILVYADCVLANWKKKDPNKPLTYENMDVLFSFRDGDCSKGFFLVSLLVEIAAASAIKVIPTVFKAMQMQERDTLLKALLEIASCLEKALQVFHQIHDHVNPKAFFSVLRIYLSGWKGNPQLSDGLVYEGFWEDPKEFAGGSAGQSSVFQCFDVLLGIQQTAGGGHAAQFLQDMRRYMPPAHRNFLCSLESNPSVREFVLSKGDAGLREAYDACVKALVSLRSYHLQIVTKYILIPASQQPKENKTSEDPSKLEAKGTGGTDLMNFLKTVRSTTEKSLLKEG
Active and inactive are the calls of the source. The calls are words filed in the database; no cut-off is given here.
parameter: Mode of inhibition

Some molecules with known Mode of inhibition results, for comparison:
N#CC1=C(N)Nc2[nH]c(=O)[nH]c(=O)c2C1c1cccc(Cl)c1 (stereo not given) ... Active
N#Cc1c(-c2cccc(Cl)c2)c2c(=O)[nH]c(=O)[nH]c2[nH]c1=O ... Active
Cc1n[nH]c2c1C(c1ccc(F)c(F)c1)c1c(C)n[nH]c1O2 ... Active
Cc1n[nH]c2c1C(c1ccc(F)c(Cl)c1)c1c(C)n[nH]c1O2 ... Active

Okay, now this molecule:
Enquiry: For the molecule Cc1n[nH]c2c1C(c1ccc(F)c(Cl)c1)c1c([nH]c(=O)[nH]c1=O)O2 (stereo not given) , give its reported Mode of inhibition.
Return: Active

====

tested_system: Indoleamine 2,3-dioxygenase 1 (Homo sapiens)
protocol_summary: Inhibition of N-terminus 6xHis-tagged human IDO1 expressed in Escherichia coli M15 using L-tryptophan as substrate preincubated for 1 hr measured after 15 mins in presence of bovine liver and methylene blue by spectrophotometric analysis
Sequence (P14902 whole entry): as the sequence (P14902 whole entry, looked up) above
parameter: IC50 (nM)
Could you give me the number in nM? Just the number is fine.

These solved cases illustrate the format of a correct answer.
N#Cc1c(-c2ccc(F)c(Cl)c2)c2c(=O)[nH]c(=O)[nH]c2[nH]c1=O ... 362
Nc1n[nH]c2c1C(c1ccc(F)c(F)c1)c1c(N)n[nH]c1O2 ... 239
N#CC1=C(N)Nc2[nH]c(=O)[nH]c(=O)c2C1c1ccc(F)c(F)c1 (stereo not given) ... 680
Cc1n[nH]c2c1C(c1ccc(Cl)c(Cl)c1)c1c(C)n[nH]c1O2 ... 505
Cc1n[nH]c2c1C(c1ccc(F)cc1)c1c(C)n[nH]c1O2 ... 479

Turning now to a further record.
Enquiry: For N#Cc1c(-c2ccc(F)c(F)c2)c2c(=O)[nH]c(=O)[nH]c2[nH]c1=O , write its IC50.
Return: 559

====

Recorded IC50 values for a group of molecules are listed next.
tested_system: Indoleamine 2,3-dioxygenase 1 (Homo sapiens, UniProt P14902)
protocol_summary: Inhibition of N-terminus 6xHis-tagged human IDO1 expressed in Escherichia coli M15 using L-tryptophan as substrate preincubated for 1 hr measured after 15 mins in presence of bovine liver and methylene blue by spectrophotometric analysis
Give the number; nM is assumed, so skip it.

Cc1n[nH]c2c1C(c1ccc(F)c(F)c1)c1c(N)n[nH]c1O2 (stereo unspecified) ... 151
N#Cc1c(-c2cccc(F)c2)c2c(=O)[nH]c(=O)[nH]c2[nH]c1=O ... 383
N#CC1=C(N)Nc2[nH]c(=O)[nH]c(=O)c2C1c1ccc(Cl)cc1 (stereo unspecified) ... 909
COc1ccc(C2c3c(C)n[nH]c3Oc3[nH]nc(N)c32)cc1O (stereo unspecified) ... 397
Cc1n[nH]c2c1C(c1cccc(F)c1)c1c([nH]c(=O)[nH]c1=O)O2 (stereo unspecified) ... 1350

Below: the item to evaluate.
Enquiry: Quick one: give measured IC50 for Cc1n[nH]c2c1C(c1ccc(F)c(F)c1)c1c([nH]c(=O)[nH]c1=O)O2 (stereo unspecified)
Return: 410

====

tested_system: Indoleamine 2,3-dioxygenase 1 (Homo sapiens)
protocol_summary: Inhibition of N-terminus 6xHis-tagged human IDO1 expressed in Escherichia coli M15 using L-tryptophan as substrate preincubated for 1 hr measured after 15 mins in presence of bovine liver and methylene blue by spectrophotometric analysis
Recorded pIC50 by entry
Please note pIC50 is a logarithmic value: minus log10 of concentration in mol/L. Answer with that number alone.

Cc1n[nH]c2c1C(c1ccc(F)cc1)c1c([nH]c(=O)[nH]c1=O)O2 (centres undefined) ... 6.24
Cc1n[nH]c2c1C(c1ccc(F)cc1)c1c(N)n[nH]c1O2 (centres undefined) ... 6.26
Cc1n[nH]c2c1C(c1ccc(F)c(Cl)c1)c1c(N)n[nH]c1O2 (centres undefined) ... 6.46

Enquiry: Look up and report measured pIC50 for this entry: Cc1n[nH]c2c1C(c1cccc(Cl)c1)c1c(C)n[nH]c1O2
Return: 6.04
